system: WT STING (Homo sapiens, UniProt Q86WV6, H232R)
Sequence (Q86WV6 whole entry H232R): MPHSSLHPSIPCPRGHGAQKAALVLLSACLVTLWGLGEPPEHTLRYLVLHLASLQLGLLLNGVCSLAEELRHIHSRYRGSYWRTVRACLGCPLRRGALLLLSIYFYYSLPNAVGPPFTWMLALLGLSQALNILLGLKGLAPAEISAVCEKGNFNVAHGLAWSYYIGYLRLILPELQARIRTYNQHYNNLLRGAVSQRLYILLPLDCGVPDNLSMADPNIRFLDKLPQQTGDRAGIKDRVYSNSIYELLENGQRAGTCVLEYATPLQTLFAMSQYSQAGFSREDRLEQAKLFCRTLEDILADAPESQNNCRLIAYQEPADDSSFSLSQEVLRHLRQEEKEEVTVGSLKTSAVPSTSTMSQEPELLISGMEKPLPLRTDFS
procedure.text: Digitonin assay using 293T wtSTING-FL reporter cells
Assay type: cell-based
Parameters: host or cells: 293T (ATCC CRL-3216), stably transfected
measurement.context: 293T wtSTING-FL cells, digitonin buffer 30 min, then 5 h, ISRE firefly luciferase reporter
reported.endpoint: EC50
Value and unit, in that order.

Entry Nc1ncnc2c1ncn2[C@@H]1CO[C@@H]2COP(=O)(S)O[C@H]3[C@@H](F)[C@H](n4cnc5c(N)ncnc54)O[C@@H]3COP(=O)(S)O[C@@H]12 (stereo partly drawn) [Compound 54] : reported EC50 = ?
10 nM

Entry Nc1ncnc2c1ncn2[C@@H]1CO[C@@H]2COP(=O)(S)O[C@H]3[C@@H](F)[C@H](n4cnc5c(N)ncnc54)O[C@@H]3COP(=O)(S)O[C@@H]12 (stereo partly drawn) [Compound 55] : reported EC50 = ?
10 nM

Entry Nc1nc2c(ncn2[C@@H]2CO[C@@H]3COP(=O)(O)O[C@H]4[C@H](n5cnc6c(N)ncnc65)CO[C@@H]4COP(=O)(O)O[C@@H]23)c(=O)[nH]1 : reported EC50 = ?
1350 nM

Entry Nc1nc2c(ncn2[C@@H]2CO[C@@H]3COP(=O)(O)O[C@H]4C[C@H](n5cnc6c(N)ncnc65)O[C@@H]4COP(=O)(O)O[C@@H]23)c(=O)[nH]1 : reported EC50 = ?
280 nM

Entry Nc1nc2c(ncn2[C@@H]2CO[C@@H]3COP(=O)(O)O[C@H]4[C@@H](F)[C@H](n5cnc6c(N)ncnc65)O[C@@H]4COP(=O)(O)O[C@@H]23)c(=O)[nH]1 : reported EC50 = ?
80 nM

Entry Nc1ncnc2c1ncn2[C@@H]1CC[C@@H]2COP(=O)(O)O[C@H]3[C@@H](F)[C@H](n4cnc5c(N)ncnc54)O[C@@H]3COP(=O)(O)O[C@H]21 : reported EC50 = ?
450 nM

Entry Nc1ncnc2c1ncn2[C@@H]1CO[C@@H]2COP(=O)(O)O[C@H]3[C@@H](F)[C@H](n4cnc5c(N)ncnc54)O[C@@H]3COP(=O)(O)O[C@@H]12 : reported EC50 = ?
20 nM

Entry Nc1ncnc2c1ncn2[C@@H]1CO[C@@H]2COP(=O)(O)O[C@H]3C[C@H](n4cnc5c(N)ncnc54)O[C@@H]3COP(=O)(O)O[C@@H]12 : reported EC50 = ?
280 nM

Entry Nc1nc2c(ncn2[C@@H]2O[C@@H]3COP(=O)(O)O[C@H]4[C@H](n5cnc6c(N)ncnc65)CO[C@@H]4COP(=O)(O)O[C@H]3[C@H]2F)c(=O)[nH]1 : reported EC50 = ?
30 nM
